# ASSAY SYSTEM: T1, human soluble urokinase plasminogen activator receptor (suPAR) (human, UniProt Q03405 23-303, limits assumed)
# T1 construct: Column head says only 'human'; also called human suPAR; hsuPAR
# T1 sequence (Q03405 23-303 limits assumed): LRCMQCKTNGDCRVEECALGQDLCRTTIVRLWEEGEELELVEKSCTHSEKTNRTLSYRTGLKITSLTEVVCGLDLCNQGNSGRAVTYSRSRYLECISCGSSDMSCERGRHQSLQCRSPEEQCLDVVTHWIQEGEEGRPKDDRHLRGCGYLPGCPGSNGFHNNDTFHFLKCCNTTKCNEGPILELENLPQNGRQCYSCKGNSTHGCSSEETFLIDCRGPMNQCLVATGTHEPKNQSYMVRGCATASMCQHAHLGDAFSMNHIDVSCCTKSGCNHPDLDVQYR
# EXPERIMENTAL DETAILS: BLI (Octet) off-rate screen of scFv clones
ASSAY READOUT: koff (s⁻¹)
Use s⁻¹ as the unit, but write only the number.

# example entries with known answers
BINDER | VALUE REPORTED
suPAR_DB02_D06 (scFv, V domains shown, scFv clone from phage display) VH: QVQLVQSGAEVKKPGASVKVSCKASGDTFANYYMHWVRQAPGQGLEWMGWIIPNSGDTNYAQKFQGRVTMTRDTSTSTVYMELSSLRSEDTAVYYCARGYDVDWFVYWGQGTLVTVSS VL: DIQMTQSPSSLSASVGDRVTITCSARSSVSYMYWYQQKPGKAPKLLIYRTSSLQSGVPSRFSGSGSGTDFTLTISSLQPEDFATYYCQQYHSYPPTFGGGTKVEIK | 0.00416
suPAR_DB02_E08 (scFv, V domains shown, scFv clone from phage display) VH: QVQLVQSGAEVKKPGASVKVSCKASGYNIKSYYIHWVRQAPGQGLEWMGWIDHENGNTIYDQKFQGRVTMTRDTSTSTVYMELSSLRSEDTAVYYCAAGYDVDWFVYWGQGTLVTVSS VL: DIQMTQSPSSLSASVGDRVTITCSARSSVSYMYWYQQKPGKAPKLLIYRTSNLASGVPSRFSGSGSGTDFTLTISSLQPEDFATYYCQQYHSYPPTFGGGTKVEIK | 0.0031

Now examine the next entry.
Summary for this binder, suPAR_DB02_D01 (scFv, V domains shown, scFv clone from phage display) VH: QVQLVQSGAEVKKPGASVKVSCKASGYTFTDYYMHWVRQAPGQGLEWMGWIDHENGNTIYDQKFQGRVTMTRDTSTSTVYMELSSLRSEDTAVYYCARGYDVDWFVYWGQGTLVTVSS VL: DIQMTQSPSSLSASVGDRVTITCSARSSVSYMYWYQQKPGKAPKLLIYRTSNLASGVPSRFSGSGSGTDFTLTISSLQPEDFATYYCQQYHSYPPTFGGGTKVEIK : koff is 0.003
